compounds and their reported hemolysis at 1 h, 50 µM
- assay_explanation: in vitro
- condition: human
Non-standard residues stand in square brackets, D forms with d. Residues, ends and D or L forms follow the SMILES beside them.
I only need the number, in %, no unit after it.

>>> result_number("CC(C)C[C@@H](NC(=O)[C@H](N)Cc1c[nH]c2ccccc12)C(=O)N[C@H](Cc1c[nH]c2ccccc12)C(=O)N[C@H](C)C(=O)N[C@H](CC(C)C)C(=O)N[C@H](CC(C)C)C(=O)N[C@H](CCCCN)C(=O)N[C@H](CC(C)C)C(=O)N[C@H](CC(C)C)C(=O)N[C@H](CCCCN)C(=O)N[C@H](CC(C)C)C(=O)N[C@H](CCCCN)C(N)=O [mKLK] (H-[dW][dL][dW][dA][dL][dL][dK][dL][dL][dK][dL][dK]-NH2; N-terminus assumed)")
36.2

Note: attention shifts to another entry.
Measured hemolysis at 1 h, 50 µM of CC(C)C[C@@H](NC(=O)[C@H](N)CCCCN)C(=O)N[C@H](CCCCN)C(=O)N[C@H](CC(C)C)C(=O)N[C@H](CC(C)C)C(=O)N[C@H](CC(C)C)C(=O)N[C@H](CC(C)C)C(=O)N[C@H](CC(C)C)C(=O)N[C@H](CCCCN)C(=O)N[C@H](CC(C)C)C(=O)N[C@H](CCCCN)C(N)=O [KLK] (H-[dK][dL][dK][dL][dL][dL][dL][dL][dK][dL][dK]-NH2; N-terminus assumed) : 71.5
